Each item that follows carries a reported Activity.
System: Calf thymus DNA
ASSAY_TEXT: Binding affinity to calf thymus DNA assessed as 3-MeA adduct formation at 100 uM after 24 hrs by RP-HPLC analysis relative to control
Type: nucleic-acid assay
CONDITION_PARAMETERS: Bos taurus

{"SMILES_STRUCTURE": "COS(=O)(=O)CCC(=O)Nc1cc(C(=O)Nc2cc(C(=O)NCC(=O)NCCCCCC[C@@H]3Cc4cc(O)ccc4[C@H]4CC[C@]5(C)[C@@H](O)CC[C@H]5[C@H]34)n(C)c2)n(C)c1", "Activity (%)": 83}
{"SMILES_STRUCTURE": "COS(=O)(=O)CCC(=O)Nc1cc(C(=O)Nc2cc(C(=O)NCCC(=O)NCCCCCC[C@@H]3Cc4cc(O)ccc4[C@H]4CC[C@]5(C)[C@@H](O)CC[C@H]5[C@H]34)n(C)c2)n(C)c1", "Activity (%)": 97}
{"SMILES_STRUCTURE": "COS(=O)(=O)CCC(=O)Nc1cc(C(=O)Nc2cc(C(=O)NCCCC(=O)NCCCCCC[C@@H]3Cc4cc(O)ccc4[C@H]4CC[C@]5(C)[C@@H](O)CC[C@H]5[C@H]34)n(C)c2)n(C)c1", "Activity (%)": 79}
{"SMILES_STRUCTURE": "CCCNC(=O)c1cc(NC(=O)c2cc(NC(=O)CCS(=O)(=O)OC)cn2C)cn1C", "Activity (%)": 95}

====

Test system: Calf thymus DNA
ASSAY_TEXT: Binding affinity to calf thymus DNA assessed as 7-MeG adduct formation at 100 uM after 24 hrs by RP-HPLC analysis
Format: nucleic-acid assay
CONDITION_PARAMETERS: Bos taurus
Each item that follows carries a reported Activity.

{"SMILES_STRUCTURE": "COS(=O)(=O)CCC(=O)Nc1cc(C(=O)Nc2cc(C(=O)NCCC(=O)NCCCCCC[C@@H]3Cc4cc(O)ccc4[C@H]4CC[C@]5(C)[C@@H](O)CC[C@H]5[C@H]34)n(C)c2)n(C)c1", "TARGET_OF_ASSAY": "Calf thymus DNA", "Activity / µmol": 495}
{"SMILES_STRUCTURE": "CCCNC(=O)c1cc(NC(=O)c2cc(NC(=O)CCS(=O)(=O)OC)cn2C)cn1C", "TARGET_OF_ASSAY": "Calf thymus DNA", "Activity / µmol": 774}
{"SMILES_STRUCTURE": "COS(=O)(=O)CCC(=O)Nc1cc(C(=O)Nc2cc(C(=O)NCC(=O)NCCCCCC[C@@H]3Cc4cc(O)ccc4[C@H]4CC[C@]5(C)[C@@H](O)CC[C@H]5[C@H]34)n(C)c2)n(C)c1", "TARGET_OF_ASSAY": "Calf thymus DNA", "Activity / µmol": 404}
{"SMILES_STRUCTURE": "COS(=O)(=O)CCC(=O)Nc1cc(C(=O)Nc2cc(C(=O)NCCCC(=O)NCCCCCC[C@@H]3Cc4cc(O)ccc4[C@H]4CC[C@]5(C)[C@@H](O)CC[C@H]5[C@H]34)n(C)c2)n(C)c1", "TARGET_OF_ASSAY": "Calf thymus DNA", "Activity / µmol": 318}

====

Test system: MDA-MB-231
ASSAY_TEXT: Cytotoxicity against ER negative human MDA-MB-231 cells incubated for 24 hrs in presence of estradiol by MTT assay
Assay type: functional, cell-based
CONDITION_PARAMETERS: MDA-MB-231, 24 h

{"SMILES_STRUCTURE": "COS(=O)(=O)CCC(=O)Nc1cc(C(=O)Nc2cc(C(=O)NCCC(=O)NCCCCCC[C@@H]3Cc4cc(O)ccc4[C@H]4CC[C@]5(C)[C@@H](O)CC[C@H]5[C@H]34)n(C)c2)n(C)c1", "UNITS_OF_MEASURE": "µM", "EC50": 160}
